system: RARa homodimer (NR concentration 270 nM); assay: PBM binding z-score (relative to random genomic background probes); higher = stronger binding; sequences stand for … in GC…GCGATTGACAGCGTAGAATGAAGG
Each item that follows carries a reported PBM binding z-score.

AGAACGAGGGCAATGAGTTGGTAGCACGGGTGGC ... -0.865
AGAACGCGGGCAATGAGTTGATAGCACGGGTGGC ... -0.629
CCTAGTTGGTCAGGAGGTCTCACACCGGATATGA ... 1.06
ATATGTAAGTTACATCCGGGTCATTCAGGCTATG ... 0.872
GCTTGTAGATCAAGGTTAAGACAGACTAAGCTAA ... -0.104

Which PBM binding z-score value belongs to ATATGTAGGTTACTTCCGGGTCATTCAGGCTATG ?
0.485

// lookup PBM binding z-score for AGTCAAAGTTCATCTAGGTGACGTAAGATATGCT
1.44

Which measured PBM binding z-score value corresponds to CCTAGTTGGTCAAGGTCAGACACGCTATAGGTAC ?
2.36

Recorded PBM binding z-score of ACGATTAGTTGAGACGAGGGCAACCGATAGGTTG , please.
0.365

If you can, please state the reported PBM binding z-score value of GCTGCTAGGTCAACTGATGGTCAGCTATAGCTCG .
0.342

Fill in: PBM binding z-score of CCGAGTAGGTTAAGGGGCATTCAGGCAACGGTGA is ___
0.293

Which PBM binding z-score is listed for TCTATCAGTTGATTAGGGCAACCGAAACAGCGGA ?
-0.12

Field request: PBM binding z-score | item: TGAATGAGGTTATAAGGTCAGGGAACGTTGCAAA
0.814

Reported PBM binding z-score for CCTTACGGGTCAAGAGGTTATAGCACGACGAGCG : what is it?
0.579

Given the sequence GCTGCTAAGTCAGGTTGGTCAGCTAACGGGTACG , what is its reported PBM binding z-score?
-0.643

###

tested on: RARg:RXRa (NR concentration 270 nM, RXRa partner concentration 90 nM); test: PBM binding z-score (relative to random genomic background probes); higher = stronger binding; sequences stand for … in GC…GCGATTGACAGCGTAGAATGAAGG
observedProperty: PBM binding z-score

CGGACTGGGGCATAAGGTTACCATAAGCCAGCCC ... 1.83
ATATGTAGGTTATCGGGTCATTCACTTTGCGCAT ... 3.43
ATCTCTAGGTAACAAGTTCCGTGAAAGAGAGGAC ... 0.357
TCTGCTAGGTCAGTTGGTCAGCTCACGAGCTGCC ... 2.61
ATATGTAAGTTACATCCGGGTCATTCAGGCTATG ... 1.71

Consider the sequence shown here: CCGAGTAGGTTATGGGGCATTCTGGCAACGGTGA What is its recorded PBM binding z-score?
0.374

Which PBM binding z-score is listed for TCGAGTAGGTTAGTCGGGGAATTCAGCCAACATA ?
-0.408

###

test system: THRa:RXRa (NR concentration 90 nM, RXRa partner concentration 90 nM); test: PBM binding z-score (relative to random genomic background probes); higher = stronger binding; sequences stand for … in GC…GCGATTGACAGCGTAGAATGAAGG
observedProperty: PBM binding z-score
No unit in the answer, only the number.

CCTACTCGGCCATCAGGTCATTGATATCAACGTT ... 3.16
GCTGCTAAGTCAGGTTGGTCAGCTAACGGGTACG ... -0.197
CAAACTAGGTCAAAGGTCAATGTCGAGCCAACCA ... 4.71

If you can, please state the reported PBM binding z-score value of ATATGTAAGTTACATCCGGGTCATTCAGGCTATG .
3.43

Value lookup for PBM binding z-score; key = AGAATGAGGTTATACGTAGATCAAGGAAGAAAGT
2.04

Data request, read-out PBM binding z-score, for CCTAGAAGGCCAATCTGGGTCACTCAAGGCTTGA
4.27

###

test system: PPARg homodimer (NR concentration 180 nM); assay: PBM binding z-score (relative to random genomic background probes); higher = stronger binding; sequences stand for … in GC…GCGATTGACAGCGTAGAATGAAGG
observedProperty: PBM binding z-score

Example results:
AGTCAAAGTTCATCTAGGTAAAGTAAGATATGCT ... 3.61
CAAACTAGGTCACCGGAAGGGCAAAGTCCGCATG ... 1.44
TTACCACGGTGAAAGGTCGTTGATGCACGCCTTG ... 1.78
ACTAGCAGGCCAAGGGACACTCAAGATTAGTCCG ... -0.118
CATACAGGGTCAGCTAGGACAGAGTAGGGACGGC ... 0.881

GET /values?readout=PBM binding z-score&item= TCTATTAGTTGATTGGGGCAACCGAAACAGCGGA
0.142

// returns reported PBM binding z-score for input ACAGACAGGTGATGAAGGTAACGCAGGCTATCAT
-0.243

Given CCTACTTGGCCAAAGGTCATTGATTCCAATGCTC , state its recorded PBM binding z-score.
3.67

Find the recorded PBM binding z-score belonging to CCAACTGGGGCAGAAAGGTTACCATACCATCCGG and report it.
0.624

Please report the recorded PBM binding z-score for ACAGACAGGTGAGTGCAGGTAACTCAGCTGGACG .
-0.465

I'd like to know its PBM binding z-score. The sequence in question is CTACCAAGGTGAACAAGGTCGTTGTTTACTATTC
0.724

Dear colleague, I am looking for the recorded PBM binding z-score of the following sequence: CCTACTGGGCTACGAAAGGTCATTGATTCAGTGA
3.32

###

PBM binding z-score values for the sequences below.
tested on: RXRa DBDmut IVT, anti-RXR (DBD mutation: RXRa K156A/R161A, NR concentration 90 nM); test: PBM binding z-score (relative to random genomic background probes); higher = stronger binding; sequences stand for … in GC…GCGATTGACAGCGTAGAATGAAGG

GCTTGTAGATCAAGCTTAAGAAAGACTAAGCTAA ... -0.635
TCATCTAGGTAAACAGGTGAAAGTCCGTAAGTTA ... 1.26
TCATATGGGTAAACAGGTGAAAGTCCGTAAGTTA ... 0.95

Here is another sequence to look at.
What value of measured PBM binding z-score is listed for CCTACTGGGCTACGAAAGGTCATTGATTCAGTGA ?
0.401

###

system: LXRa:RXRa (NR concentration 270 nM, RXRa partner concentration 90 nM); experiment: PBM binding z-score (relative to random genomic background probes); higher = stronger binding; sequences stand for … in GC…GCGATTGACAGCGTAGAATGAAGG
Would you mind classing the entries by PBM binding z-score? Ranges: bucket A (below 0.7), bucket B (0.7 to below 4), bucket C (4 or more)

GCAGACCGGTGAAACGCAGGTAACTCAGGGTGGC ... bucket A
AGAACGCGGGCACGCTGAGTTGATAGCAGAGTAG ... bucket A
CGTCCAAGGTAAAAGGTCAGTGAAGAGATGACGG ... bucket B
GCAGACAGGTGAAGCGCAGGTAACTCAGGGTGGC ... bucket A
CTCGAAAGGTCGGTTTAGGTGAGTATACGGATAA ... bucket B
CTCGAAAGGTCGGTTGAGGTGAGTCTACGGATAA ... bucket B

For the record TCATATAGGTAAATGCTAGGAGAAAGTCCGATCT , report the class its PBM binding z-score corresponds to.
bucket A

###

tested on: LXRb:RXRa (NR concentration 270 nM, RXRa partner concentration 90 nM); assay: PBM binding z-score (relative to random genomic background probes); higher = stronger binding; sequences stand for … in GC…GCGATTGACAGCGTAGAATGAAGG
# PBM binding z-score listing for each entry below
Field format: numeric only.

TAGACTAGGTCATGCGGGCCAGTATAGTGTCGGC ... 1.15
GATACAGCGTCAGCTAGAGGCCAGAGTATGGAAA ... -1.11
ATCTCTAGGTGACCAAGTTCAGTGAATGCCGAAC ... 0.467
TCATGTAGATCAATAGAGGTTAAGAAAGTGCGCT ... 1.95
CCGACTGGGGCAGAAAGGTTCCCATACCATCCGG ... -0.996
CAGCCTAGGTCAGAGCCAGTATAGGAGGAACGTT ... 0.607

Fill blank: measured PBM binding z-score of the sequence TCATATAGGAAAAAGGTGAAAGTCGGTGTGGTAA is ____.
1.38

Which PBM binding z-score reading was recorded for the sequence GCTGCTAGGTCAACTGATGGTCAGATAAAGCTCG ?
2.43

What PBM binding z-score value was documented for this sequence, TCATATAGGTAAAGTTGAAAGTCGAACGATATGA ?
0.68
